Reference for the values: paper PMC8707586

Target: dopamine-β-hydroxylase (DBH) (Homo sapiens)
Construct: purchased
Sequence (P09172 1-617): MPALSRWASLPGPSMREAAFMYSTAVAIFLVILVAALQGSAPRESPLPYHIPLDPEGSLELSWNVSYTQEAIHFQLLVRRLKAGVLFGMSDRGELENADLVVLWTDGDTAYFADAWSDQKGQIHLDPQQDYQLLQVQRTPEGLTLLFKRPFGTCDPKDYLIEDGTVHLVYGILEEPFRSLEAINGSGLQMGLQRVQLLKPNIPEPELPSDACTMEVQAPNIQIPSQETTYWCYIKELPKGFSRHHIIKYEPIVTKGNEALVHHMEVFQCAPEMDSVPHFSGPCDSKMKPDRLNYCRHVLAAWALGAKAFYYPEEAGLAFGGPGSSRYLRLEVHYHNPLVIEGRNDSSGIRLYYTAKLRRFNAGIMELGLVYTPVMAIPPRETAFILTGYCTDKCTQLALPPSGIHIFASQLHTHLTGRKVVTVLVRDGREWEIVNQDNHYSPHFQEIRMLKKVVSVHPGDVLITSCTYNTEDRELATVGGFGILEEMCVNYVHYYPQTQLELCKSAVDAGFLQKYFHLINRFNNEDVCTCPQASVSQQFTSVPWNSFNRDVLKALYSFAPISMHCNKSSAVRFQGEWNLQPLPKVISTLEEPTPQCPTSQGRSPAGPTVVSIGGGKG
Experiment: DBH activity assay (DMPD, tyramine)
Format: biochemical

molecule	system	inhibition of DBH activity
[N-]=[N+]=[N-].[Na+] [compound 27, sodium azide]	dopamine-β-hydroxylase (DBH) (Homo sapiens)	moderate inhibition
OCC(S)CS (stereo not shown)	dopamine-β-hydroxylase (DBH) (Homo sapiens)	moderate inhibition

----------
target: A. oryzae laccase; assay: Laccase activity assay (L-DOPA substrate), A. oryzae; assay type: biochemical, Aspergillus oryzae; conditions: Ki from IC50 by Cheng–Prusoff; 0.01% Triton X-100; listed as sodium azide
measured.attribute: Ki (µM)
Note: unit µM is implicit; provide only the numeric part.

Any idea what its Ki is? The compound is [N-]=[N+]=[N-].[Na+] [compound 27, sodium azide]
3

----------
molecular target: A. oryzae laccase; assay: Laccase activity assay (L-DOPA substrate), A. oryzae; format: biochemical, Aspergillus oryzae; details: Ki from IC50 by Cheng–Prusoff; 0.01% Triton X-100; listed as thioguanine
measured.attribute: pKi
By convention, pKi is the negative base-10 log of a molar concentration.

Any idea what its pKi is? The molecule is Nc1nc2nc[nH]c2c(=S)[nH]1
4.68

----------
target: A. oryzae laccase; assay: Laccase activity assay (L-DOPA substrate), A. oryzae; assay type: biochemical, Aspergillus oryzae; conditions: Ki from IC50 by Cheng–Prusoff; 0.01% Triton X-100; listed as captopril
measured.attribute: Ki (µM)
Note: unit µM is implicit; provide only the numeric part.

Checklist item: Ki tested on A. oryzae laccase, entry C[C@H](CS)C(=O)N1CCC[C@H]1C(=O)O , value?
26

----------
molecular target: A. oryzae laccase; assay: Laccase activity assay (L-DOPA substrate), A. oryzae; format: biochemical, Aspergillus oryzae; settings: Ki from IC50 by Cheng–Prusoff; 0.01% Triton X-100
pKi: −log10 of the molar value.
Measured pKi, listed per entry for reference.

O=c1cc(CO)occ1O < 3.00
O=c1cccccc1O < 3.00

Checklist item: pKi tested on A. oryzae laccase, entry NC(=S)Nc1ccccc1 , value?
< 3.00
